The reported numbers originate from patent US20240325555A1.

# Tested Target: T1, human LIV-1 (human, UniProt Q13433 29-755)
# T1 sequence (looked up): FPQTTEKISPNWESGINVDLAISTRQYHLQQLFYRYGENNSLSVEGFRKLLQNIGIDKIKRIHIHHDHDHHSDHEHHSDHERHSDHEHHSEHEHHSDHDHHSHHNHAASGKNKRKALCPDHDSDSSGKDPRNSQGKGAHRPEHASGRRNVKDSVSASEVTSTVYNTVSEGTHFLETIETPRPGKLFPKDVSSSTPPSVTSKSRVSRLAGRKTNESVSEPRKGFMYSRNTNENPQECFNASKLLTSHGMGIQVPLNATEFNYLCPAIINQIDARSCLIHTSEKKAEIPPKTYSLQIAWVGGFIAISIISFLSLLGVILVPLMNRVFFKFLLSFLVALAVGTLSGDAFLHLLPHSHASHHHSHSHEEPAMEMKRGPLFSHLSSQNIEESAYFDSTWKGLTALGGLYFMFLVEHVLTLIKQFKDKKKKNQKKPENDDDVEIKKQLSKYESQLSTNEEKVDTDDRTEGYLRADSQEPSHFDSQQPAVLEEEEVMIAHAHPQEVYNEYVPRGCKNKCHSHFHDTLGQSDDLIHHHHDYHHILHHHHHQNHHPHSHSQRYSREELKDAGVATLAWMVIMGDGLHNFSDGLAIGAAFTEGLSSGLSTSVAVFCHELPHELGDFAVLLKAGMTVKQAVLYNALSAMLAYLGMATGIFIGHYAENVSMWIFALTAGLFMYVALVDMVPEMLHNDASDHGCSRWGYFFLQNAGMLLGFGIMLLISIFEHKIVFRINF
# Experiment Summary: cell-based or functional assay
Could you please report measured Min cell viability %, BT20/H_LIV-1 Low for the items listed next?
Numbers only, in %.

Use these answered entries as a reference point.
binder="290F10G10.z2-MMAE (antibody, V domains shown, MMAE drug moiety conjugated; site and chain not stated, also called LM-001-MMAE) VH: EVQLVQSGAEVKKPGASVKVSCKASGYTFTSYWIHWVRQAPGQGLEWMGTIYPGDADTRSTQKFKDRVTMTADTSTSTVYMELSSLRSEDTAVYYCARSLIHDDYDKYYFDYWGQGTTVTVSS VL: DIQMTQSPSSLSASVGDRVTITCKARQDINKYIAWYQQKPGKAPKLLIHYTSILQPGIPSRFSGSGSGRDYTFTISSLQPEDIATYYCLQYDYFFTFGGGTKVEIK" observable="Min cell viability %, BT20/H_LIV-1 Low" numeric_readout=37.9
binder="290F10G10.z2-Eribulin (antibody, V domains shown, Eribulin drug moiety conjugated; site and chain not stated) VH: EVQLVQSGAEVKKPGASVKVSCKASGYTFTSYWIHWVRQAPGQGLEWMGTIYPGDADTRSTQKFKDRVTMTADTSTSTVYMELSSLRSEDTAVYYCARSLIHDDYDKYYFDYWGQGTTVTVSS VL: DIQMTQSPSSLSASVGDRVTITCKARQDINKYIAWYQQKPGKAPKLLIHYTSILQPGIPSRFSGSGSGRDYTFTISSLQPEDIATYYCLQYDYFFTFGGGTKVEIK" observable="Min cell viability %, BT20/H_LIV-1 Low" numeric_readout=38.4

Exercise: So what does the record say about Min cell viability %, BT20/H_LIV-1 Low for 124H4D11.p2.z4-Eribulin (antibody, V domains shown, Eribulin drug moiety conjugated; site and chain not stated, Antibody-drug conjugate of 124H4D11.p2.z4; human gamma 1/kappa) VH: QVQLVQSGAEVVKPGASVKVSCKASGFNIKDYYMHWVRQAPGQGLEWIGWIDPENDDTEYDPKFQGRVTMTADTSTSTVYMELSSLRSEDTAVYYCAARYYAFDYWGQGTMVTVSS VL: DVLMTQSPLSLPVTLGQPASISCRSSQSIVHSNANTYLEWYLQRPGQSPRLLIYKVSNRFSGVPDRFSGSGSGTDFTLKISRVEAEDVGVYYCFQGSQVPPTFGQGTKLEIK ?
Key: 37.9
